target: HIV Env of isolate RHPA4259.7 (clade B) (HIV); assay: cell-based or functional assay
experimental_endpoint: IC50 (µg/ml) with constrains
Note to self: number, then unit, no commentary.

PGDM1400 (antibody, V domains shown) VH: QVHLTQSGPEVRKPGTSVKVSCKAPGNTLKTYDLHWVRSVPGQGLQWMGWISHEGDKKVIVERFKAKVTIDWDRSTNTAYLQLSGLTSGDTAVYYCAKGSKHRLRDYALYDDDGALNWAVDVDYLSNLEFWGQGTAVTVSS VL: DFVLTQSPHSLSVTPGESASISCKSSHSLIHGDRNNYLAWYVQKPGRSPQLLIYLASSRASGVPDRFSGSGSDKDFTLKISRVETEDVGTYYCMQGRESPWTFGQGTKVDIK = 0.491 µg/mL

Name the recorded IC50 (µg/ml) with constrains for ePGDM9 (antibody, V domains shown) VH: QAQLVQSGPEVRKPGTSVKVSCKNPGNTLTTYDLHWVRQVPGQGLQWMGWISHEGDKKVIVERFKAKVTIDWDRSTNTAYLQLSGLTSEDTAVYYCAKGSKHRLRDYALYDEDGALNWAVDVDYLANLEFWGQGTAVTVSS VL: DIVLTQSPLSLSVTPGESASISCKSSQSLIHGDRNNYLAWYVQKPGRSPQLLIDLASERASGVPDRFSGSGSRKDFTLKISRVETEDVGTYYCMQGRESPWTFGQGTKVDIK . 0.145 µg/mL

For ePGDM5 (antibody, V domains shown) VH: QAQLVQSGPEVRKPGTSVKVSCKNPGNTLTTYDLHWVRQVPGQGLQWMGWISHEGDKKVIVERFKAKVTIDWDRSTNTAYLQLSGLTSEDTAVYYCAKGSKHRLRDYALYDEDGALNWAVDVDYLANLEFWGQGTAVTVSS VL: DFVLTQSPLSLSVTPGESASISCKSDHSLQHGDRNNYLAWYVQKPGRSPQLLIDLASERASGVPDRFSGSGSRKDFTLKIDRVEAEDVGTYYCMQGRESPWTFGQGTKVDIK then? 0.464 µg/mL

For ePGDM13 (antibody, V domains shown) VH: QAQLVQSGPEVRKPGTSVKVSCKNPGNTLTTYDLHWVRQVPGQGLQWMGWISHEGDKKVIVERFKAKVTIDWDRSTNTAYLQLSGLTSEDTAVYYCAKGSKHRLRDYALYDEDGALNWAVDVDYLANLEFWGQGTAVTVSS VL: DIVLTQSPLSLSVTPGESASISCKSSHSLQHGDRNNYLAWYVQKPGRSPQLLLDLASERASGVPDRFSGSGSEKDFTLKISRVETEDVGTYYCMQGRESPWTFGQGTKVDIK then? 0.358 µg/mL

Each recorded value in this set is attributed to patent US20230134571A1.
